target: Protein kinase 7 (PK7), Plasmodium falciparum 3D7 (PF3D7_0213400); test: inhibition of Plasmodium PK7 catalytic activity – biochemical, TCAMS antimalarial set, Kinase-Glo luminescence (AID 1159587); details: recombinant PfPK7, Kinase-Glo ATP depletion luminescence
Calls of active or inactive are those of the source. No rule for the calls is given here.
measure: outcome

Example results:
• CN(C)CCOc1cc(NC(=O)Nc2cccc3c(-c4ccncc4)cccc23)ccc1I = inactive
• O=C(/C=C/c1ccc(Cl)c(Cl)c1)NCCCCCN1CCC(NC(=O)c2cccc(Cl)c2)CC1 = inactive
• NC(=Nc1nc(-c2ccccn2)cc2ccccc12)c1cccc(Cl)c1 = inactive
• CCOc1c(CNCCCCCCNCc2ccc3ccccc3c2OCC)ccc2ccccc12 = inactive

Continue with the next compound.
Request the reported outcome associated with N=c1sc2ccccc2n1CC(O)c1ccc(Cl)c(Cl)c1 (stereo not given) inactive
